# reported cell count; entries follow
Assay: viability loss with induced miR-34 in A549 – imaging, A549 dox-inducible miR-34, nuclei and caspase counts, primary screen (AID 1347080)
Settings: A549 miR-34 inducible, Hoechst nuclei count, 48 h; measured here: total cells with miR-34 induction; stronger effect = lower value

Guide cases for cell count, answers given:
compound=CC(=O)OC1=C(C)NC(C)=C(OC(C)=O)C1c1ccccc1[N+](=O)[O-] test_result=3570
compound=CNC(=O)c1cc(COc2nnc(Nc3ccc(Cl)cc3)c3ccoc23)ccn1 test_result=5140
compound=C/C(=N\NC(=O)[C@@H]1C(=O)NC[C@H]1c1ccccc1)c1cccc(Br)c1 test_result=8430
compound=O=C(O)CCCCCCCCCCCNC(=O)NC1CCCCC1 test_result=5580

What value of cell count has been recorded for this entry: CCCCC[C@H](O)C/C=C1/C(=O)C[C@H](O)[C@@H]1C/C=C\CCCC(=O)O
5280

What value of cell count has been recorded for this entry: N=C(CC(O)COc1ccccc1-c1ccccc1)N1CCCCC1 (centres undefined)
6170

What value of cell count has been recorded for this entry: O=c1oc(-c2ccc(C(F)(F)F)cc2)nn1Cc1cc(Cl)ccc1O
6380

What value of cell count has been recorded for this entry: CCOC(=O)C12CC1/C(=N\O)c1ccccc1O2 (centres undefined)
8510

What value of cell count has been recorded for this entry: O=C(O)CCCCCC[C@@H]1C(=O)NC(=O)N1CCC(O)C1CCCCC1 (some centres undefined)
5520

What value of cell count has been recorded for this entry: Nc1ncnc2c1C(=O)N(c1ccc(C3CCC(CC(=O)O)CC3)cc1)CCO2 (centres undefined)
8200

What value of cell count has been recorded for this entry: COc1cc(/C=C(\C#N)C(=O)Nc2nnc(C(F)(F)F)s2)ccc1OCc1ccc(C(F)(F)F)cc1C(F)(F)F
1620

What value of cell count has been recorded for this entry: CCCCCCCC/C=C\CCCCCCCCOCCOP(=O)([O-])OCC[N+](C)(C)C
5510

What value of cell count has been recorded for this entry: Cn1c([N+](=O)[O-])cc[n+]1C
8620

What value of cell count has been recorded for this entry: CCCCCCCC/C=C\CCCCCCCC(=O)OCC
5610

What value of cell count has been recorded for this entry: CCCCC/C=C\C/C=C\C/C=C\C/C=C\CCCC(=O)SCC(O)CO (centres undefined)
5460

What value of cell count has been recorded for this entry: CC(C)n1c(/C=C/[C@H](O)C[C@H](O)CC(=O)O)c(-c2ccc(F)cc2)c2ccccc21
1670

What value of cell count has been recorded for this entry: CCCCC[C@H](O)CC[C@@H]1[C@H]2Cc3cccc(OCC(=O)O)c3C[C@H]2C[C@H]1O
6200

What value of cell count has been recorded for this entry: CCCCC/C=C/C=C1/C=CC(=O)[C@@H]1C/C=C\CCCC(=O)O
5680

What value of cell count has been recorded for this entry: COC(=O)[C@H](Cc1ccc([N+](=O)[O-])cc1)NC(=O)c1cccc2ccccc12
9700

====

Assay: viability loss with induced miR-34 in A549 – imaging, A549 dox-inducible miR-34, nuclei and caspase counts, primary screen (AID 1347080)
Conditions: A549 miR-34 inducible, Hoechst nuclei count, 48 h; measured here: relative caspase fold change +Dox/-Dox
In plain terms, low fold change, meaning strictly below 0.9, gives TRUE, and everything else gives FALSE.

Take a look at these entries with their results.
compound=C=CC(=O)Nc1cccc(Nc2nc(Nc3ccc(OCCOC)cc3)ncc2F)c1 class_name=TRUE
compound="CCCCC1C(=O)CC[C@H]2[C@@H]1CC(=O)[C@@H]2CCCCCCC(=O)O (stereo partly drawn)" class_name=FALSE

For this compound, is fold change lower than 0.9? Cc1cc(Nc2cc(N3CCN(C)CC3)nc(Sc3ccc(NC(=O)C4CC4)cc3)n2)n[nH]1
TRUE

For this compound, is fold change lower than 0.9? O=C(Nc1ccccc1)C12CC1/C(=N\O)c1ccccc1O2 (stereo not drawn)
TRUE

For this compound, is fold change lower than 0.9? O=P(O)(O)OC1C(O)C(OP(=O)(O)O)C(O)C(OP(=O)(O)O)C1O (stereo not drawn)
FALSE

For this compound, is fold change lower than 0.9? CC(C)Oc1ccc(C(=O)c2ccc(NC3=NCCN3)cc2)cc1
TRUE

For this compound, is fold change lower than 0.9? C=C(C)[C@@H]1CCC(C)=C[C@H]1c1c(O)cc(C)cc1O
FALSE

For this compound, is fold change lower than 0.9? CCCCCCCCCCCCC(=O)N[C@H]1CCOC1=O
FALSE

For this compound, is fold change lower than 0.9? Cc1ccc(C(=O)Nc2cccc(C(F)(F)F)c2)cc1Nc1nc(-c2cccnc2)nc2c1cnn2C
FALSE

For this compound, is fold change lower than 0.9? CCCCC[C@H](O)/C=C/[C@@H]1[C@H]2C/C=C\CCCC(=O)O[C@H]2C[C@H]1O
FALSE

====

Assay: viability loss with induced miR-34 in A549 – imaging, A549 dox-inducible miR-34, nuclei and caspase counts, primary screen (AID 1347080)
Conditions: A549 miR-34 inducible, Hoechst nuclei count, 48 h; measured here: relative caspase fold change +Dox/-Dox
In plain terms, low fold change, meaning strictly below 1, gives class 1, and everything else gives class 0.

Take a look at these entries with their results.
compound="CCCCC[C@H](O)/C=C/[C@H]1C2COC(C2)[C@@H]1C/C=C\\CCCC(=O)O (stereo partly drawn)" class_name="class 1"
compound=CCCCCCCCCCCC(=O)O class_name="class 0"
compound=CCCNS(=O)(=O)Nc1ncnc(OCCOc2ncc(Br)cn2)c1-c1ccc(Br)cc1 class_name="class 1"

For this compound, is fold change lower than 1? COC(=O)[C@H](Cc1ccccc1)NC(=O)/C=C/c1ccc(O)cc1
class 1

For this compound, is fold change lower than 1? O=C1C=CC(=O)C2=C1C1c3ccccc3C2c2ccccc21
class 0

For this compound, is fold change lower than 1? O=C(O)CCC/C=C\C[C@@H]1[C@@H](CC[C@@H](O)CCc2cccc(C(F)(F)F)c2)[C@H](O)C[C@@H]1O
class 0

For this compound, is fold change lower than 1? CN1C[C@H]2c3ccccc3Oc3ccc(Cl)cc3[C@@H]2C1 (racemic)
class 0

====

Assay: growth inhibition, single agent and combos, cell-based, chromothripsis tumors, cisplatin or BGB combos (AID 1671450);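 further: cells exposed to compound for four days; 0% = vehicle DMSO and 100% = cell killing by high DMSO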
Conditions: HDN33 neuroblastoma cells, BGB combo, at 5 µM, stronger effect = higher value
Label fulfilled when inhibition >= 40%; otherwise not fulfilled.

Tell me whether inhibition is at least 40% here: Cc1cn([C@@H]2O[C@H](CO)[C@@H](O)[C@@H]2F)c(=O)[nH]c1=O
not fulfilled

Tell me whether inhibition is at least 40% here: O=C(O)[C@H](Cc1c[nH]c2ccccc12)N1C(=O)c2ccccc2C1=O
not fulfilled

Tell me whether inhibition is at least 40% here: CC(=O)[C@]1(N)Cc2c(O)c3c(c(O)c2[C@@H](O[C@H]2C[C@H](O)[C@H](O)CO2)C1)C(=O)c1ccccc1C3=O
fulfilled

Tell me whether inhibition is at least 40% here: Nc1ccccc1NC(=O)c1ccc(CNc2nccc(-c3cccnc3)n2)cc1
fulfilled

Tell me whether inhibition is at least 40% here: Nc1ncnc2c1c(-c1cnc3[nH]ccc3c1)nn2C1CCCC1
fulfilled

Tell me whether inhibition is at least 40% here: CC(=O)Nc1ccc(C(=O)Nc2ccccc2N)cc1
fulfilled

Tell me whether inhibition is at least 40% here: CC(C)OC(=O)[C@H](C)N[P@](=O)(OC[C@H]1O[C@@H](n2ccc(=O)[nH]c2=O)[C@](C)(F)[C@@H]1O)Oc1ccccc1
not fulfilled

====

# reported viability; entries follow
Test: drug combination growth inhibition, ovarian cancer – cell-based, oncology-focused library, rucaparib conditional, profiling panel (AID 1508598)
Conditions: patient-derived ovarian cancer cells, CellTiter-Glo viability, 144 h; at 0.0195 µM; OCI-C5x cells; with rucaparib 10 µM; stronger effect = lower value; 100% = cells with rucaparib alone
# number only, unit % dropped from output

Guide cases for viability, answers given:
item_smiles=CS(=O)(=O)c1cccc(CNc2nc(Nc3ccc4c(c3)CCC(=O)N4)ncc2C(F)(F)F)c1 value_kind=viability unit_symbol=% test_result=104
item_smiles=CC(C)C[C@H](NC(=O)CNC(=O)c1cc(Cl)ccc1Cl)B(O)O value_kind=viability unit_symbol=% test_result=122
item_smiles=COC(=O)c1ccc2c(C(=Nc3ccc(N(C)C(=O)CN4CCN(C)CC4)cc3)c3ccccc3)c(O)[nH]c2c1 value_kind=viability unit_symbol=% test_result=120
item_smiles=CN1CCCN(C(=O)c2cccc(-c3ccc(/C=C4/C(=O)Nc5ccc(Cl)cc54)o3)c2)CC1 value_kind=viability unit_symbol=% test_result=90.6

Next item in the queue.
What value of viability has been recorded for this entry: Cc1cc(Nc2cc(N3CCN(C)CC3)nc(/C=C/c3ccccc3)n2)n[nH]1
115
